# assay-overview: Tissue distribution in rats after oral administration
# Format: in vivo, male Sprague-Dawley rats
# measurement-setup: male, Sprague-Dawley, rat, ileum tissue, PO 25 mg/kg, 2 h, average, N = 3, read-out: Ileum Tissue concentration
measurement-kind: concentration at 2 h (ng/g)
Numbers only here, please. The scale is ng/g.

Q) Fill blank: measured concentration at 2 h of the compound CC(C)(O)CNC(=O)Cc1nc2cnc3[nH]ccc3c2n1[C@H]1CC[C@H](CC#N)CC1 [Compound of Formula I] is ____.
A) 8950

* * *

# assay-overview: Tissue distribution in mice after oral administration
# Assay type: in vivo, female C57Bl/6 mice
# measurement-setup: female, C57Bl/6, mouse, colon, oral 10 mg/kg, 7 h, mean ± SD, read-out: Colon concentration
measurement-kind: concentration at 7 h (ng/g)
Numbers only here, please. The scale is ng/g.

Q) Fill blank: measured concentration at 7 h of the compound "CC(C)(O)CNC(=O)Cc1nc2cnc3[nH]ccc3c2n1[C@H]1CC[C@H](CC#N)CC1" is ____.
A) 3790

* * *

# assay-overview: Serum and colonic concentrations in IL-12/IL-18 studies S-1 and S-2
# Type: in vivo, C57BL/6 mice
# measurement-setup: C57BL/6, mouse, colon, po, 25 mg/kg, S-2; mice, oral 25 mg/kg; mean±SEM; read-out: Colon 4 h post dosing
measurement-kind: concentration at 4 h (ng/g)
Numbers only here, please. The scale is ng/g.

Q) Fill blank: measured concentration at 4 h of the compound "CC(C)(O)CNC(=O)Cc1nc2cnc3[nH]ccc3c2n1[C@H]1CC[C@H](CC#N)CC1" is ____.
A) 18300

* * *

# assay-overview: Tissue distribution in rats after oral administration
# Format: in vivo, male Sprague-Dawley rats
# measurement-setup: male, Sprague-Dawley, rat, liver, PO 25 mg/kg, 7 h, average ±SD, read-out: Liver concentration
measurement-kind: concentration at 7 h (ng/g)
Numbers only here, please. The scale is ng/g.

Q) Fill blank: measured concentration at 7 h of the molecule CC(C)(O)CNC(=O)Cc1nc2cnc3[nH]ccc3c2n1[C@H]1CC[C@H](CC#N)CC1 [Compound of Formula I] is ____.
A) 20.7

* * *

# assay-overview: Tissue distribution in rats after oral administration
# Assay type: in vivo, male Sprague-Dawley rats
# measurement-setup: male, Sprague-Dawley, rat, jejunum lumen content, PO 25 mg/kg, 3 h, average, N = 3, read-out: Jejunum Content concentration
measurement-kind: concentration at 3 h (ng/mL)
Numbers only here, please. The scale is ng/mL.

Q) Fill blank: measured concentration at 3 h of the compound "CC(C)(O)CNC(=O)Cc1nc2cnc3[nH]ccc3c2n1[C@H]1CC[C@H](CC#N)CC1" is ____.
A) 48000

* * *

# assay-overview: Serum and colon concentrations in explant studies SS-1 and SS-2
# Type: in vivo, C57BL/6 mice
# measurement-setup: C57BL/6, mouse, colon, po, 0.25 mg/kg, SS-2; mice, 4 hours post oral dose 0.25 mg/kg; mean±SEM; read-out: Colon concentration
measurement-kind: concentration at 4 h (ng/g)
Numbers only here, please. The scale is ng/g.

Q) Fill blank: measured concentration at 4 h of the compound "CC(C)(O)CNC(=O)Cc1nc2cnc3[nH]ccc3c2n1[C@H]1CC[C@H](CC#N)CC1" is ____.
A) 262
